- assay.target: BTK (C481S) (Homo sapiens (Human), UniProt Q06187, C481S)
- Sequence (Q06187 whole entry C481S): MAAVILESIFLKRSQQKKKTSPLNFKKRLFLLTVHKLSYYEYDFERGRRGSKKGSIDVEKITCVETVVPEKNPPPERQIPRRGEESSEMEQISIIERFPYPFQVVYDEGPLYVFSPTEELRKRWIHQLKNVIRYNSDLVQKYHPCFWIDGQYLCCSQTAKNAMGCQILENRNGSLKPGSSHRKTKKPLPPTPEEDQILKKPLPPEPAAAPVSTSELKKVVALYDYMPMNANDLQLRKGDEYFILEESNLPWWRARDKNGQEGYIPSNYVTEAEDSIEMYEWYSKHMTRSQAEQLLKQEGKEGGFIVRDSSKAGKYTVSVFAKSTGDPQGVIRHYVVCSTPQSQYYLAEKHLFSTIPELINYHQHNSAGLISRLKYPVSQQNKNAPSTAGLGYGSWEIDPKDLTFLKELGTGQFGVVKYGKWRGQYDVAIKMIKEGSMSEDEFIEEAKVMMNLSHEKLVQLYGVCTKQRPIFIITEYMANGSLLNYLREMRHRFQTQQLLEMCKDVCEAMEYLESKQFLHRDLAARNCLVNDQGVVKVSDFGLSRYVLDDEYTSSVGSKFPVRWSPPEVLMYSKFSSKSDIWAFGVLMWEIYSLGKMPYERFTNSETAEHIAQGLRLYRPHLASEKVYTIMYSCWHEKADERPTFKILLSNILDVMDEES
- assay: BTK C481S enzyme experiment (ADP-Glo kinase assay)
- protocol.conditions: 10 nM BTK C481S, ATP 125 μM, Poly(Glu4, Tyr1), 90 minutes at 20° C.
assay.endpoint: pIC50
In textbook form, pIC50 equals minus log to base ten of the concentration in mol/L.

Use the examples below as a reference point.
Note to self: pIC50 of CC1(CO)Nc2c(cnc3[nH]cc(C(=O)c4ccc(Oc5ccccc5)cc4Cl)c23)NC1=O (stereo not shown) with BTK (C481S) (Homo sapiens (Human), UniProt Q06187, C481S) was 7.84

Note to self: pIC50 of O=C(c1ccc(Oc2ccccc2)cc1Cl)c1c[nH]c2ncc3c(c12)NC1(CCOC1)CO3 (stereo not shown) with BTK (C481S) (Homo sapiens (Human), UniProt Q06187, C481S) was 7.06

Note to self: pIC50 of [2H]C([2H])([2H])OC[C@@]1(C)Nc2c(cnc3[nH]cc(C(=O)c4ccc(Oc5ccccc5)cc4Cl)c23)NC1=O (single isomer, unassigned) with BTK (C481S) (Homo sapiens (Human), UniProt Q06187, C481S) was 8.07

Note to self: pIC50 of CN(C)CCN1C(=O)C(C)(C)Nc2c1cnc1[nH]cc(C(=O)c3ccc(Oc4ccccc4)cc3Cl)c21 with BTK (C481S) (Homo sapiens (Human), UniProt Q06187, C481S) was 6.89

Note to self: pIC50 of COC[C@]1(C)Nc2c(cnc3[nH]cc(C(=O)c4ccc(Oc5ccccc5)cc4Cl)c23)NC1=S with BTK (C481S) (Homo sapiens (Human), UniProt Q06187, C481S) was 7.56

Others:
Note to self: pIC50 of COC1CCC2(C1)Nc1c(cnc3[nH]cc(C(=O)c4ccc(Oc5ccccc5)cc4Cl)c13)NC2=O (single isomer, unassigned) [Z25-1] with BTK (C481S) (Homo sapiens (Human), UniProt Q06187, C481S) was 7.70

Note to self: pIC50 of CN1C(=O)[C@](C)(CO)Nc2c1cnc1[nH]cc(C(=O)c3ccc(Oc4ccccc4)cc3Cl)c21 (single isomer, unassigned) with BTK (C481S) (Homo sapiens (Human), UniProt Q06187, C481S) was 7.46

###

- assay.target: UniProt Q06187
- assay: p-BTK cell experiment, HEK293 transfected with WT-BTK plasmid (P-BTK Y223 sandwich ELISA)
- protocol.conditions: HEK293 cells, compound cultured for two hours
Quick reference for pIC50 among some molecules
In textbook form, pIC50 equals minus log to base ten of the concentration in mol/L.

Value of pIC50 reported for the molecule [2H]C([2H])([2H])OC[C@]1(C)Nc2c(cnc3[nH]cc(C(=O)c4ccc(Oc5ccccc5F)cc4Cl)c23)NC1=O [Z160] is 7.78

Others:
Value of pIC50 reported for the molecule CN(C)C1CCC2(C1)Nc1c(cnc3[nH]cc(C(=O)c4ccc(Oc5ccccc5)cc4Cl)c13)NC2=O (centres unmarked) [Z137] is 7.30

Value of pIC50 reported for the molecule C[C@@]1(CO)Nc2c(cnc3[nH]cc(C(=O)c4ccc(Oc5ccccc5)cc4Cl)c23)NC1=O (single isomer, unassigned) [Z9-2] is 7.20

Value of pIC50 reported for the molecule COC[C@]1(C)Nc2c(cnc3[nH]cc(C(=O)c4ccc(Oc5cc(F)ccc5OC)cc4Cl)c23)NC1=O [Z169] is 7.99

Value of pIC50 reported for the molecule COC[C@@]1(C)Nc2c(cnc3[nH]cc(C(=O)c4ccc(Oc5ccccc5)cc4F)c23)NC1=O (single isomer, unassigned) [Z71-1] is 7.49

Value of pIC50 reported for the molecule COC[C@]1(C)Nc2c(cnc3[nH]cc(C(=O)c4ccc(Oc5ccccn5)cc4Cl)c23)NC1=O [Z136] is 7.09

Value of pIC50 reported for the molecule O=C(c1ccc(Oc2ccccc2)cc1Cl)c1c[nH]c2ncc3c(c12)N[C@]1(CC[C@H](O)C1)C(=O)N3 (single isomer, unassigned) [Z24-b] is 7.40

Value of pIC50 reported for the molecule CN1CC[C@]2(C1)Nc1c(cnc3[nH]cc(C(=O)c4ccc(Oc5ccccc5)cc4Cl)c13)NC2=O (single isomer, unassigned) [Z2-1] is 7.53

Value of pIC50 reported for the molecule COC[C@]1(C)Nc2c(cnc3[nH]cc(C(=O)c4ccc(Oc5ccccc5F)cc4Cl)c23)NC1=O [Z155] is 7.55

Value of pIC50 reported for the molecule CN1CCC2(C1)Nc1c(cnc3[nH]cc(C(=O)c4ccc(Oc5ccccc5)cc4Cl)c13)NC2=O (centres unmarked) [Z2] is 6.91

Value of pIC50 reported for the molecule O=C(c1ccc(Oc2ccccc2)cc1Cl)c1c[nH]c2ncc3c(c12)N[C@]1(CC[C@@H](O)C1)C(=O)N3 (single isomer, unassigned) [Z24-c] is 7.71

Value of pIC50 reported for the molecule N#C[C@@H]1CC[C@]2(C1)Nc1c(cnc3[nH]cc(C(=O)c4ccc(Oc5ccccc5)cc4Cl)c13)NC2=O (single isomer, unassigned) [Z26-1] is 7.50

Value of pIC50 reported for the molecule COCC[C@]1(C)Nc2c(cnc3[nH]cc(C(=O)c4ccc(Oc5ccccc5)cc4Cl)c23)NC1=O [Z78-2] is 7.17

Value of pIC50 reported for the molecule CN1CC[C@@]2(C1)Nc1c(cnc3[nH]cc(C(=O)c4ccc(Oc5ccccc5)cc4Cl)c13)NC2=O (single isomer, unassigned) [Z2-2] is 7.38

###

- assay.target: BTK (Homo sapiens (Human), UniProt Q06187)
- Sequence (Q06187 whole entry): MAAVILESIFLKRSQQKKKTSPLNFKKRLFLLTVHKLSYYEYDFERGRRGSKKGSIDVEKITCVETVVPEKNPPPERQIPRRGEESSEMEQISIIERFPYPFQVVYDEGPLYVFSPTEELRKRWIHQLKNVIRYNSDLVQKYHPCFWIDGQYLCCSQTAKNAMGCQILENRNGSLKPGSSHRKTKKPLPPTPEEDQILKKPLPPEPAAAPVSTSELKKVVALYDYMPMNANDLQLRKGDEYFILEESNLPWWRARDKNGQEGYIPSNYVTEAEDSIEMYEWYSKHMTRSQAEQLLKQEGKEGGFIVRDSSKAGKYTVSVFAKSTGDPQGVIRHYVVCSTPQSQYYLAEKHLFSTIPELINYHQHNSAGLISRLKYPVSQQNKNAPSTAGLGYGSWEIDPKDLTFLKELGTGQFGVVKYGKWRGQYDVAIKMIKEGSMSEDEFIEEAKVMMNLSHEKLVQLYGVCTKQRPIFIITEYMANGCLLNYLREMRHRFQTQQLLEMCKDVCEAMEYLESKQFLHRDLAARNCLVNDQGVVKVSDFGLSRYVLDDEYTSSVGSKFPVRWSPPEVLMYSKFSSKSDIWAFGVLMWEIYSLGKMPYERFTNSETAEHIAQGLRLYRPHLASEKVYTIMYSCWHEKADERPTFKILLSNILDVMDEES
assay.endpoint: IC50
Include the unit right after the number.

Note to self: IC50 of O=C(c1ccc(Oc2ccccc2)cc1Cl)c1c[nH]c2ncc3c(c12)N[C@@]1(CCCOC1)C(=O)N3 (single isomer, unassigned) with BTK (Homo sapiens (Human), UniProt Q06187) was 5 nM

Note to self: IC50 of O=C(c1ccccc1Cl)c1c[nH]c2ncc3c(c12)NC1(CCOCC1)C(=O)N3 with BTK (Homo sapiens (Human), UniProt Q06187) was 3 nM

Note to self: IC50 of COC[C@]1(C)Nc2c(cnc3[nH]cc(C(=O)c4ccc(Oc5ncccc5F)cc4Cl)c23)NC1=O with BTK (Homo sapiens (Human), UniProt Q06187) was 11.7 nM

Note to self: IC50 of COCC1(C)Nc2c(cnc3[nH]cc(C(=O)c4ccc(Oc5cc(C)ccn5)cc4Cl)c23)NC1=O (single isomer, unassigned) [Z64-2] with BTK (Homo sapiens (Human), UniProt Q06187) was 8.4 nM

Note to self: IC50 of N#C[C@H]1CC[C@@]2(C1)Nc1c(cnc3[nH]cc(C(=O)c4ccc(Oc5ccccc5)cc4Cl)c13)NC2=O (single isomer, unassigned) [Z26-3] with BTK (Homo sapiens (Human), UniProt Q06187) was 34 nM

Others:
Note to self: IC50 of CN(C)CCN1C(=O)C(C)(C)Nc2c1cnc1[nH]cc(C(=O)c3ccc(Oc4ccccc4)cc3Cl)c21 with BTK (Homo sapiens (Human), UniProt Q06187) was 185 nM

Note to self: IC50 of COC[C@]1(C)Nc2c(cnc3[nH]cc(C(=O)c4ccc(Oc5ncccc5C)cc4Cl)c23)NC1=O with BTK (Homo sapiens (Human), UniProt Q06187) was 26.5 nM

###

- assay.target: BTK (C481S) (Homo sapiens (Human), UniProt Q06187, C481S)
- assay: BTK C481S enzyme experiment (ADP-Glo kinase assay)
- protocol.conditions: 10 nM BTK C481S, ATP 125 μM, Poly(Glu4, Tyr1), 90 minutes at 20° C.
Please assign -1 whenever IC50 is at or above 8 nM, and 1 whenever it is below.

Prompt: IC50 strictly < 8 nM for this compound? COC[C@]1(C)Nc2c(cnc3[nH]cc(C(=O)c4ccccc4Cl)c23)N=C1SC
Response: -1

###

- assay.target: BTK (C481S) (Homo sapiens (Human), UniProt Q06187, C481S)
- assay: BTK C481S enzyme experiment (ADP-Glo kinase assay)
- protocol.conditions: 10 nM BTK C481S, ATP 125 μM, Poly(Glu4, Tyr1), 90 minutes at 20° C.
assay.endpoint: pIC50
In textbook form, pIC50 equals minus log to base ten of the concentration in mol/L.

Use the examples below as a reference point.
Note to self: pIC50 of COCC1(C)Nc2c(cnc3[nH]cc(C(=O)c4ccc(Oc5ccccc5)cc4Cl)c23)N(C)C1=O (single isomer, unassigned) [Z52-1] with BTK (C481S) (Homo sapiens (Human), UniProt Q06187, C481S) was 7.62

Note to self: pIC50 of COC[C@]1(C)Nc2c(cnc3[nH]cc(C(=O)c4ccc(Oc5nccc(C)c5F)cc4Cl)c23)NC1=O with BTK (C481S) (Homo sapiens (Human), UniProt Q06187, C481S) was 7.81

Others:
Note to self: pIC50 of CCOC[C@@]1(C)Nc2c(cnc3[nH]cc(C(=O)c4ccc(Oc5ccccc5)cc4Cl)c23)NC1=O (single isomer, unassigned) with BTK (C481S) (Homo sapiens (Human), UniProt Q06187, C481S) was 7.75

Note to self: pIC50 of CN1CCC2(C1)Nc1c(cnc3[nH]cc(C(=O)c4ccc(Oc5cc(C(F)(F)F)ccn5)cc4Cl)c13)NC2=O (stereo not shown) with BTK (C481S) (Homo sapiens (Human), UniProt Q06187, C481S) was 7.34

Note to self: pIC50 of O=C(c1ccc(Oc2ccccc2)cc1Cl)c1c[nH]c2ncc3c(c12)NC1(CCOCC1)C(=O)N3 with BTK (C481S) (Homo sapiens (Human), UniProt Q06187, C481S) was 8.29

Note to self: pIC50 of COC[C@]1(C)Nc2c(cnc3[nH]cc(C(=O)c4ccc(Oc5cc(C)nc(Cl)c5)cc4Cl)c23)NC1=O with BTK (C481S) (Homo sapiens (Human), UniProt Q06187, C481S) was 7.05

Note to self: pIC50 of COC[C@]1(C)Nc2c(cnc3[nH]cc(C(=O)c4ccccc4Cl)c23)NC1=O with BTK (C481S) (Homo sapiens (Human), UniProt Q06187, C481S) was 8.49
